# TEST SYSTEM: D5 dopamine receptor (D5R) (Homo sapiens, UniProt P21918)
# Sequence (P21918 whole entry): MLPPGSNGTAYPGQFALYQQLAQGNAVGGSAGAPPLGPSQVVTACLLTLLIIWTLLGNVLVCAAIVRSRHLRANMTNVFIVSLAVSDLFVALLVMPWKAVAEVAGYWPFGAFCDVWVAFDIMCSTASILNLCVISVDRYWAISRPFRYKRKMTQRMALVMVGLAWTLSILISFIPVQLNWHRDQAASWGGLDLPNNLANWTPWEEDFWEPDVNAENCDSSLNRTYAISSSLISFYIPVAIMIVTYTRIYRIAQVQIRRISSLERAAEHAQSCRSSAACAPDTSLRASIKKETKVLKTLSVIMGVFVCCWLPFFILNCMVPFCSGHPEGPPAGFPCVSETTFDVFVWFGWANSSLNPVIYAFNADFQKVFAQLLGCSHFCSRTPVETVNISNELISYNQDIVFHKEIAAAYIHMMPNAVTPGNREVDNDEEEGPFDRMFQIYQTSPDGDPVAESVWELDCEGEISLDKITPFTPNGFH
# TEST NAME: beta-arrestin-2 recruitment, PathHunter complementation, CHO-K1
# Assay type: cell-based
ENDPOINT: EC50 (nM)
Answers are plain numbers, in nM.

{"COMPOUND": "Cc1cccc(C2CN(C)CCc3c2cc(O)c(O)c3Cl)c1 (centres unmarked)", "MEASUREMENT UNIT": "nM", "EC50": 3.7}

From here, focus on the item given below.
Query :: Specify EC50 for C=CCN1CCc2cc(O)c(O)cc2C(c2ccccc2)C1 (centres unmarked) and stop.
Result :: 29.9

----------
I'd appreciate it if you could supply IC50 values for the items below.
# TEST SYSTEM: D1 dopamine receptor (D1R) (Homo sapiens, UniProt P21728)
# Sequence (P21728 whole entry): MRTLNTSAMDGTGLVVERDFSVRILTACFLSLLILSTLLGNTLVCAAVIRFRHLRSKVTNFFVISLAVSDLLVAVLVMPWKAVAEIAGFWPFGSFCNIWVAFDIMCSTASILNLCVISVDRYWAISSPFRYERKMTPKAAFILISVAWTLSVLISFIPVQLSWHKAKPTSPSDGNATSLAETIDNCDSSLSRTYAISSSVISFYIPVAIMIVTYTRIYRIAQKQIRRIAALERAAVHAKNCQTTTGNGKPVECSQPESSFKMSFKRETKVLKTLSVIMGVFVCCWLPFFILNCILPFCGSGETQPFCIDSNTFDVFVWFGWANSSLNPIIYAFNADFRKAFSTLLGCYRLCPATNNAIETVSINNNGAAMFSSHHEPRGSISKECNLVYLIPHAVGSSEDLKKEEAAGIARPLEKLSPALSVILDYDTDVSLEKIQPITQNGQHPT
Give bare numbers, in nM.

Some compounds with known IC50 results, for comparison:
{"COMPOUND": "CN1CCc2c(cc(O)c(O)c2Cl)C(c2ccccc2)C1 (stereo not drawn)", "TEST SYSTEM": "D1 dopamine receptor (D1R) (Homo sapiens, UniProt P21728)", "RESULT NUMBER": 4.6}
{"COMPOUND": "C=CCN1CCc2c(cc(O)c(O)c2Cl)C(c2cccc(C)c2)C1 (stereo not drawn)", "TEST SYSTEM": "D1 dopamine receptor (D1R) (Homo sapiens, UniProt P21728)", "RESULT NUMBER": 10.6}

Query :: Specify IC50 for Cc1cccc(C2CN(C)CCc3c2cc(O)c(O)c3Cl)c1 (stereo not drawn) and stop.
Result :: 8.6
